Study System: T1, RBFOX1 RRM RbFoxmut (Fox-RRM*) (Homo sapiens, UniProt Q9NWB1 109-208, R118D;E147R;N151S;E152T)
T1 sequence: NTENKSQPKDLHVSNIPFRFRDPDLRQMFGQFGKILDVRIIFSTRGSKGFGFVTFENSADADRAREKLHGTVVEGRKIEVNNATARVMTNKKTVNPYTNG
Experiment Notes: EMSA; HiTS-Eq, 1 nM pool, 10 min; buffer printed only for the single-RNA assays: 10 mM Tris pH 7.5, 150 mM NaCl, 3.4 mM EDTA, 0.001% NP-40, 30 C
Measurement Context: tags: His6 N-terminal (pET28a); label: 5' 32P
Over roughly 16,000 sequences, “ka relative to ugcaugu” has its median near 0.096; the highest 2% begin near 0.35. What follows is part of a selection rich in the highest values, with near analogues and random picks from the rest.
Each entry below carries its reported binding signal.

A selection of reference data follows.
{"columns": ["Binder", "binding signal"],
 "data": [
  ["GUAUGCA (DNA:RNA) RNA: GGGAGACCGGAAUUCAGAUUGUCCGUAUGCAUUAAAUCCCGUCGUAGCCACCA DNA 1: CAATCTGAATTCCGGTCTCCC DNA 2: TGGTGGCTACGACGGGATT", "0.574 KA relative to UGCAUGU"],
  ["AUUUAGC (DNA:RNA) RNA: GGGAGACCGGAAUUCAGAUUGUCCAUUUAGCUUAAAUCCCGUCGUAGCCACCA DNA 1: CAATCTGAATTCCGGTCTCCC DNA 2: TGGTGGCTACGACGGGATT", "0.134 KA relative to UGCAUGU"],
  ["AAGUUAU (DNA:RNA) RNA: GGGAGACCGGAAUUCAGAUUGUCCAAGUUAUUUAAAUCCCGUCGUAGCCACCA DNA 1: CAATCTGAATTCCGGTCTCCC DNA 2: TGGTGGCTACGACGGGATT", "0.118 KA relative to UGCAUGU"],
  ["GGAUGCA (DNA:RNA) RNA: GGGAGACCGGAAUUCAGAUUGUCCGGAUGCAUUAAAUCCCGUCGUAGCCACCA DNA 1: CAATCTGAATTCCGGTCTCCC DNA 2: TGGTGGCTACGACGGGATT", "0.24 KA relative to UGCAUGU"]
]}

Please look at the following binder next.
Query: Supply measured binding signal of UGAUGUC (DNA:RNA) RNA: GGGAGACCGGAAUUCAGAUUGUCCUGAUGUCUUAAAUCCCGUCGUAGCCACCA DNA 1: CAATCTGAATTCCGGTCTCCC DNA 2: TGGTGGCTACGACGGGATT in your reply.
Reply: 0.207 KA relative to UGCAUGU
